This section presents molecules with their documented ε248 values.
Assay Text: Optical properties: absorptivity at 248 nm in acetonitrile
Assay type: physicochemical
Experimental Setup: Measured in acetonitrile
The answer consists of two parts: a number and, after it, its unit.

Answered cases to consult:
Molecule: O=S(=O)(O)C(F)(F)C(F)(F)Oc1ccccc1
Metric: ε248
Assay Result: 6015 cm^2 · mol^-1
//
Molecule: O=S(=O)(O)C(F)(F)C(F)(F)C(F)(F)C(F)(F)F
Metric: ε248
Assay Result: 4200 cm^2 · mol^-1
//
Molecule: O=S(=O)(O)C(F)(F)C(F)(F)OC(F)(F)C(F)(F)C1CC2CCC1C2 (stereo not shown)
Metric: ε248
Assay Result: 5220 cm^2 · mol^-1

Note: attention shifts to another entry.
query: Item O=C1CCC(CC(F)(F)C(F)(F)OC(F)(F)C(F)(F)S(=O)(=O)O)O1 (stereo not shown) has what recorded ε248?
result: 5400 cm^2 · mol^-1
